Data origin: the supplement of paper PMC3545927

Listed here: items and their measured furin cleavage Z-score.
Test system: furin, P09958;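 further: purified furin at 1:10 enzyme:substrate in 50 mM HEPES pH 7.5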
Sequence (P09958 whole entry): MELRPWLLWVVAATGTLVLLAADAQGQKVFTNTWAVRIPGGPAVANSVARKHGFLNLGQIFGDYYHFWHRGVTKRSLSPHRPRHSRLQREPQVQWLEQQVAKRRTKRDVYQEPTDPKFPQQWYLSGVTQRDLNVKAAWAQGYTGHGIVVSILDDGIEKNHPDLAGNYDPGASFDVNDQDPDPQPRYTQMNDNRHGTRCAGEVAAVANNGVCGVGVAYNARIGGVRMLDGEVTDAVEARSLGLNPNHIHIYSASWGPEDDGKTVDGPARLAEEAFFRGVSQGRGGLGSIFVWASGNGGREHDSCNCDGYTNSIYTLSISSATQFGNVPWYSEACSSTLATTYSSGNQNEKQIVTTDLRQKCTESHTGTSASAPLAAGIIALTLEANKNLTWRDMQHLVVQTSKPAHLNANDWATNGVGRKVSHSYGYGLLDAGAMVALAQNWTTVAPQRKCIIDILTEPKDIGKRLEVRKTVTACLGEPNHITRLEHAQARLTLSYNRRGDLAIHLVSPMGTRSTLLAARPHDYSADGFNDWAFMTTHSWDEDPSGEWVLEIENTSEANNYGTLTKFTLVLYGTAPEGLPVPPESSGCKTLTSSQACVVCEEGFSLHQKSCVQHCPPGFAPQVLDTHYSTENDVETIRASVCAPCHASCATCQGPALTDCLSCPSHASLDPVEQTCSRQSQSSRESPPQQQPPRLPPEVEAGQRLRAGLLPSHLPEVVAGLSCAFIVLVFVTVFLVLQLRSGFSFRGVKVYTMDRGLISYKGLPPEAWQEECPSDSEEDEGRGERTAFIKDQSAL
Assay overview: furin cleavage Z-score vs untreated control; higher = more cleavage, active = 3.5 or more, inactive = 1 or less, 8 variable residues between constant flanks
Reported conditions: 7.5 min
Some of the results follow. The hit rate among all sequences tested is not known here.
Write the value as a bare number.

[[record]]
seq = "CAAAGRRLARAGNASASA [HC1253]"
number = 4.08


Summary for this sequence, CARRHRTYRWAGNASASA [FS-864] : furin cleavage Z-score is 7.43

Summary for this sequence, CAVCGDDLVVAGNASASA [HC1528] : furin cleavage Z-score is -2.27

Summary for this sequence, CARGPRARRSAGNASASA [FS-855] : furin cleavage Z-score is 7.87

Summary for this sequence, CARTRKFVVDAGNASASA [FS-2315] : furin cleavage Z-score is 0.233

Summary for this sequence, CAVVNCSMSYAGNASASA [HC2041] : furin cleavage Z-score is 0.601

Summary for this sequence, CAEVPCHRYSAGNASASA [HC2389] : furin cleavage Z-score is 0.533

Summary for this sequence, CARDRRSPAEAGNASASA [FS-3152] : furin cleavage Z-score is 10.2

Summary for this sequence, CAAAYCLSTGAGNASASA [HC996] : furin cleavage Z-score is 0.288

Summary for this sequence, CARAERRPRRAGNASASA [FS-1059] : furin cleavage Z-score is 8.38

Summary for this sequence, CARPRRGIIFAGNASASA [FS-3021] : furin cleavage Z-score is 1.06

Summary for this sequence, CAGAYMSKAHAGNASASA [HC793] : furin cleavage Z-score is -0.996
